- Measured on: T1, human IL-17E (human, UniProt Q9H293 33-177)
- T1 construct: expressed in E. coli; also called hIL-17E
- T1 sequence (looked up): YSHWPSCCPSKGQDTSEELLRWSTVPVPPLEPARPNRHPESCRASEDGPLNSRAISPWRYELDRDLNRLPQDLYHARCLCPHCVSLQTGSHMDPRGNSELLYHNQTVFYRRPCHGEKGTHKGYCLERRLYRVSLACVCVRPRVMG
- Protocol: SPR, cytokine on chip
Property label: binding result

Worked set:
04G01 (VHH, Class 2; also called IL17MS04G01; 04G1) VHH: EVQLVESGGGLVQAGGSQRLSCTASGTIVNIHVMGWYRQAPGKQRELVALIFSGGSADYADSVKGRFTISRDNAKNTVYLEMNSLKAEDTAVYYCAAEIGYYSGGTYYSSEAHWGQGTQVTVSS
no binding
02A08 (VHH, Class 2) VHH: EVQLVESGGGVVQPGGSLRLSCADSERSFSFNAMGWFRQAPGKEREFVAAISATGDDTYYADSVKGRFAISRDTARNTVYLQMNSLKPEDTAVYYCGARVNFDGTVSYTNDYAYWGQGTQVTVSS
no binding
16A04 (VHH, Class 3; also called IL17MS16A04) VHH: EVQLVESGGGLVQAGGSLRLSCAASGRTFSSYVVGWFRQAPGKEREFIGAISGSGDSIYYAVSEKDRFTISRDNGKNTLYLQMSSLKAEDTAVYYCTADQEFGYLRFGRSEYWGQGTQVTVSS
no binding
13B03 (VHH, Class 4; also called IL17MS13B03) VHH: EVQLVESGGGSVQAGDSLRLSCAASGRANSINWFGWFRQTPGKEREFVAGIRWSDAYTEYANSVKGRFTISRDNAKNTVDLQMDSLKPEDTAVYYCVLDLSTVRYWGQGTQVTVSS
no binding

In: Name the recorded binding result for 17C01 (VHH, Class 4) VHH: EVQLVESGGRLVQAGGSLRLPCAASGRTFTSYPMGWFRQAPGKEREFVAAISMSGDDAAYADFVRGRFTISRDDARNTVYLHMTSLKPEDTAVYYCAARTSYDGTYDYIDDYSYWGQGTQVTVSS .
Out: no binding

In: Then what about the binder 24G10 (VHH, Class 3) VHH: EVQLVESGGGLVQAGGSLRLSCGAAGGTFSSYATGWFRQAPGKEREFVAVFRWSDSHTAYADSVKGRFTISRDGAKNTLYLQMSSLKPEDTAIYYCTTATRPGEWDYWGQGTQVTVSS ?
Out: no binding

In: Then what about the binder 07B11 (VHH, Class 3) VHH: EVQLVESGGGLVQAGGSLRLSCVASGRAFSSYVMGWFRQAPGMEREFVALIRWSDGITGYVDSVKGRFTISRDNAKNTVYLQMNSLKPEDTAVYYCAAAVRPGDYDYWGQGTQVTVSS ?
Out: no binding

In: Then what about the binder 13E02 (VHH, Class 4; also called IL17MS13E02) VHH: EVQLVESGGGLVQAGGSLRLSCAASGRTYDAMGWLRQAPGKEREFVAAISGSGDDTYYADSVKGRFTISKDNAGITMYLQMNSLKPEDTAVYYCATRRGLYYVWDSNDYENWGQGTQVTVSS ?
Out: no binding

The measurements presented in this section are drawn from patent US20210130452A1.
